# measurement-target: KCNQ2/3 channels (Homo sapiens, UniProt O43525+O43526)
# test-name: Fluorescence assay using a voltage-sensitive dye (fluorimetry)
# measurement-setup: CHO-K1 cells expressing KCNQ2/3 channels
pEC50: −log10 of the molar value.
Decision: pEC50 >= 7 yields Criterion met, all other cases yield Criterion not met.

## Input Evaluate CCSc1nc2c(F)cccc2c(C)c1C(=O)NCc1cccc(F)c1 [compound 120] : pEC50 at minimum 7?
## Output Criterion not met

## Input Evaluate CCSc1nc2ccccc2c(C)c1C(=O)NCc1cccc(F)c1 [compound 92] : pEC50 at minimum 7?
## Output Criterion not met

====

# measurement-target: KCNQ2/3 channels (Homo sapiens, UniProt O43525+O43526)
# Construct: expressed in transfected cells; host or cells: CHO-K1 cells
# test-name: Fluorescence assay using a voltage-sensitive dye (fluorimetry)
# Type: cell-based
# measurement-setup: at 1 μM; 50 μM retigabine = 100%; CHO-K1 cells expressing KCNQ2/3; read-out: Fluorimetry % efficacy at 1 μM (50 μM retigabine = 100%)
Emax at 1 µM reference
State just the number; it will be interpreted in %.

Consider the reported Emax at 1 µM for these compounds:
[[record]]
compound = "O=C(NCc1cccs1)c1cc2cc(C(F)(F)F)ccc2nc1SCCS(=O)(=O)c1ccccc1"
property_label = "Emax at 1 µM"
measure_unit = "%"
numeric_readout = 46

[[record]]
compound = "CCSc1nc2c(C(F)(F)F)cccc2c(C)c1C(=O)NCc1cccc(F)c1"
property_label = "Emax at 1 µM"
measure_unit = "%"
numeric_readout = 164

[[record]]
compound = "CCSc1nc2cc(C(F)(F)F)ccc2c(C)c1C(=O)NCC1CCCCCC1"
property_label = "Emax at 1 µM"
measure_unit = "%"
numeric_readout = 86


Here is another compound to look at.
## Input Tell me the measured Emax at 1 µM of CCSc1nc2cccc(F)c2c(C)c1C(=O)NCc1ccc(F)cc1 , please.
## Output 8
